test: Phase I open-label single-dose crossover oral bioavailability / PK test of bedoradrine sulfate in healthy volunteers; assay type: in vivo, human; conditions: human two, in vivo, iv, 300 ug, AUC 0-24 h, individual subject
Counter-ions that a name gives are not always drawn.
METRIC_NAME: AUC(0-t) (ng·h/mL)
One number for each entry, in ng·h/mL.

So what does the record say about AUC(0-t) for CN(C)C(=O)COc1ccc2c(c1)C[C@@H](NC[C@H](O)c1ccc(O)c(CCO)c1)CC2 [MN-221, bedoradrine sulfate] ?
15.5

----------
assay: Phase I open-label single-dose crossover oral bioavailability / PK test of bedoradrine sulfate in healthy volunteers; format: in vivo, human; conditions: human two, in vivo, iv, 300 ug, t½, individual subject
Where a name gives a salt, the structure may show the parent alone.
METRIC_NAME: half-life (h)
Give bare numbers, in h.

So what does the record say about half-life for CN(C)C(=O)COc1ccc2c(c1)C[C@@H](NC[C@H](O)c1ccc(O)c(CCO)c1)CC2 [MN-221, bedoradrine sulfate] ?
14.6
